Parameter 'readout' = IC50; parameter 'system' = Cyclin-dependent kinase 2 (Homo sapiens, UniProt P24941).
Answers are plain numbers, in µM.

See these solved cases before continuing.
                                   compound  unit_name  recorded_result
0  N[C@H]1CC[C@H](Nc2cc(Nc3ccc(S(=O)(=O)c4cccs4)cc3)n3ncc(Cl)c3n2)CC1         µM            0.011
1  CN(C)S(=O)(=O)c1ccc(Nc2cc(N[C@H]3CC[C@H](N)CC3)nc3c(Br)cnn23)cc1         µM             0.01
2  CCN[C@H]1CC[C@H](Nc2cc(Nc3ccc(S(=O)(=O)N(C)C)cc3)n3ncc(C(C)C)c3n2)CC1         µM            0.061
3  CN(C)S(=O)(=O)c1ccc(Nc2cc(N[C@H]3CC[C@H](N)CC3)nc3c(Cl)cnn23)cc1         µM            0.008
4  CC(C)COc1cc(Nc2ccc(S(=O)(=O)N(C)C)cc2)n2ncc(C(C)C)c2n1         µM              1.2
5  CC(C)c1cnn2c(Nc3ccc(S(=O)(=O)N(C)C)cc3)cc(NC3CCCC(N)C3)nc12 (configuration not stated)         µM              2.1

Moving on to another compound below.
Prompt: Param item = N[C@H]1CC[C@H](Nc2cc(Nc3ccc(S(=O)(=O)c4ccccc4)cc3)n3ncc(Br)c3n2)CC1 ; retrieve measured IC50.
Response: 0.016

Data origin, for the record: ChEMBL document CHEMBL1141971
